Test system: Human papillomavirus type 1a E7 protein (residues 1-88)
PROTOCOL DESCRIPTION: HPV1a E7 small-molecule binders, primary screen, biochemical, small-molecule microarray, residues 1-88, 635 nm (AID 1129)
MEASUREMENT PARAMETERS: small-molecule microarray binding, fluorescence 635 nm; higher = more signal
REPORTED ENDPOINT: composite z-score
Answer field: number only, no words.

Worked set:
O=c1n(-c2ccccc2)c(=O)n2n1CC[C@@H]1C(=NOCc3ccccc3)[C@H]3O[C@H]3[C@@H](O)[C@@H]12    -0.0945
CCN1C(=O)[C@H]2[C@H]3[C@H](O)[C@H](O)CC(=O)[C@@H]3CC[C@H]2C1=O    0.899
CC[C@@H](c1ccccc1)n1c(=O)n2n(c1=O)[C@H]1[C@H](O)[C@@H]3O[C@@H]3C(=O)[C@H]1CC2    0.0346
O=C1C=C[C@@H](O)[C@@H]2[C@@H]3C(=O)N(C[C@@H]4CCCO4)C(=O)[C@@H]3CC[C@@H]12    0.686
CC(C)=CCCC(C)=CCON=C1C[C@@H](O)[C@@H](O)[C@@H]2[C@@H]3C(=O)N(c4ccc(F)cc4F)C(=O)[C@@H]3CC[C@H]12    1.21
C=CC[C@@H]1C=C[C@H](ON=C2[C@H]3CCn4c(=O)n(-c5ccccc5)c(=O)n4[C@H]3[C@H](O)[C@@H]3O[C@H]23)[C@@H](CO)O1    -0.542

Could you now consider this next molecule?
Query string: Look up composite z-score for this molecule: "CC(C)(C)N1C(=O)[C@H]2[C@H]3[C@H](O)[C@H](O)CC(=O)[C@H]3CC[C@H]2C1=O"
Result string: 0.496

* * *

PROTOCOL DESCRIPTION: E. coli growth modulation, two-sided OD650, primary screen, E. coli filamentation project, strain DRC41, 24 h (AID 1093);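 also: MC1000 strain lacking acrAB efflux and sulA so SOS filamentation is blocked; test concentration not given here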
MEASUREMENT PARAMETERS: OD650, 24 h, higher = more signal, called active from +8 up or from −8 down
Would you please tag the item YES when its z-score is 0.2 or above, and NO when it is below?

Here's what some known entries look like.
CCN1C(=O)[C@H]2[C@H]3[C@H](O)[C@H](O)CC(=O)[C@H]3CC[C@H]2C1=O    YES
O=C1OCCC=C1C(O)CCc1ccccc1 (stereo not given)    YES
O=C(NN=C1C[C@@H](O)[C@@H](O)[C@@H]2[C@@H]3C(=O)N(Cc4ccccc4)C(=O)[C@@H]3CC[C@@H]12)OCc1ccccc1    YES
C=Cc1ccc([C@H]2N[C@H](C(=O)O)CC[C@@H]2C)cc1    YES
Cn1c(=O)n2n(c1=O)[C@H]1[C@H](O)[C@@H]3O[C@@H]3C(=O)[C@H]1CC2    YES

Query string: z-score >= 0.2 for "CCOC(=O)NN=C1C[C@@H](O)[C@@H](O)[C@@H]2[C@@H]3C(=O)N([C@@H](C)c4ccccc4)C(=O)[C@@H]3CC[C@H]12" ?
Result string: YES

Query string: z-score >= 0.2 for "CCCNC(=O)OC[C@H]1O[C@H](CCON=Cc2ccc(C(=O)N3[C@H](c4ccc(C)cc4)[C@@H](C)CC[C@H]3C(=O)OC)cc2)C=C[C@@H]1Oc1ccc(OC)cc1" ?
Result string: YES

Query string: z-score >= 0.2 for "O=C1[C@H]2[C@H]3[C@H](O)[C@H](O)CC(=NOC[C@@H](O)COCc4ccco4)[C@@H]3CC[C@H]2C(=O)N1C[C@@H]1CCCO1" ?
Result string: YES

Query string: z-score >= 0.2 for "O=c1n(Cc2cc3c(cc2Cl)OCO3)c(=O)n2n1CC[C@@H]1C(=NOC[C@@H](O)COCc3ccco3)[C@H]3O[C@H]3[C@@H](O)[C@@H]12" ?
Result string: YES
